# system.tested: Cad1 (UniProt P24813)
# Sequence: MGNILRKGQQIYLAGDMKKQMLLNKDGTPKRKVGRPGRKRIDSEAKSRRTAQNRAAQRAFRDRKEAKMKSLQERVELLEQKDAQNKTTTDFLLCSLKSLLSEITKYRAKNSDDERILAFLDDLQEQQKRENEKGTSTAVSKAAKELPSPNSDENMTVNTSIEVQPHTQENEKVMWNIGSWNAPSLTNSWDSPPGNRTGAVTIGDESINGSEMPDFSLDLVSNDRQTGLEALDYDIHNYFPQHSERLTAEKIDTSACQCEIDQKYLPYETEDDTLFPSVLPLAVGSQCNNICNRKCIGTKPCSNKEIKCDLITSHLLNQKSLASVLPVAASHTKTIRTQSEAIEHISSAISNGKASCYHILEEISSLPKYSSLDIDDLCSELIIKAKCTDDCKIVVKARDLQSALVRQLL
# protocol.summary: PBM E-score (8-mer binding enrichment) (E-score (-0.5 to 0.5)); higher = stronger / more preferred TF binding
# test.parameters: protein concentration: 100 nM; construct: GST-full length
The full ranking holds about 33,000 sequences; the median of “E-score (-0.5 to 0.5)” is about -0.0014, and the highest 2% start at about 0.25. What follows is part of a selection rich in the highest values, with near analogues and random picks from the rest.
Kindly return yes (1) if reported PBM E-score is no lower than 0.2; return no (0) if it is lower.

Use these answered entries as a reference point.
{"sequence.text": "CCCAGATA", "classification": "no (0)"}
{"sequence.text": "GTGACCAA", "classification": "no (0)"}
{"sequence.text": "GTGCTCTA", "classification": "no (0)"}
{"sequence.text": "TTGACAAA", "classification": "yes (1)"}
{"sequence.text": "ATGACAAA", "classification": "yes (1)"}

Would you say ATTTCCAA shows PBM E-score at minimum 0.2? no (0)

Would you say ATGACATC shows PBM E-score at minimum 0.2? yes (1)

Would you say AAGAAGTA shows PBM E-score at minimum 0.2? no (0)

Would you say GTGACAAA shows PBM E-score at minimum 0.2? yes (1)
